Where do the numbers come from? From patent US20160251419A1.

- targetUnderTest: Recombinant Aβ1-42 (rAβ1-42 peptides) in the Thioflavin T fibril formation assay (UniProt P05067 672-713)
- Sequence (P05067 672-713 limits assumed): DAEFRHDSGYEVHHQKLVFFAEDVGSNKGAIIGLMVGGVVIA
- testProtocol: cell-based or functional assay
Parameter: T50 (time in minutes for 50% inhibition of fibril formation). Scope: all listed entries.

monoclonal antibody 4a8.e11 (antibody, V domains shown, Mouse hybridoma mAb raised against NUCB1-capped hIAPP protofibrils; kappa light chain; also called mAb 4a8.e11) VH: EVQLQESGGGLVKPGGSLKLSCAASGFTFSDYGMHWVRQAPEKGLEWVAYISSGSSTVYCADTVKGRFTISRDNAKNTLFLQMTSLRSEDTAMYYCARRWGYFDYWGQGTTLTVSS VL: DIKMTQSPSSMYASLGERVTFTCKASQDINSFLSWFQQKPGKSPKTLIYRANRLVDGVPSRFSGSGSGQDYSLTITSLEFEDMGIYYCLQYDEFPYTFGGGTKLEIK	37.9 min

Given the binder monoclonal antibody 4b1.h9 (antibody, V domains shown) VH: EVQLQESGPVLVKPGASVKMSCKASGYTFTDYYMNWVKQSHGKSLEWIGVINPYNGGTSYNQKFKGKATLTVDKSSSTAYMELNSLTSEDSAVYYCARRRGYAMDYWGQGTSVTVSS VL: DIQMTQSPASLSASVGETVTITCRASENIYSYLAWYQQKQGKSPQLLVYNAKTLAEGVPSRFSGSGSGTQFSLKINSLQPEDFGSYYCQHHYGTPYTFGGGTNLEIK , what is its reported T50 (time in minutes for 50% inhibition of fibril formation)?
60.7 min
